Quick record: IC50, FXa (Homo sapiens).
Structures can show the parent of a compound that is named as a salt.
attribute measured: IC50 (nM)

INSERT INTO assay_data (compound, measurement) VALUES
  ('CCCC(Oc1cccc(C(=N)N)c1)C(=O)Nc1ccc(N2CCCS2(=O)=O)cc1 (centres unmarked) [AA, acetate]', 350),
  ('Cc1cc(NC(=O)C(Nc2cccc(CN)c2)c2ccccc2)ccc1N1CCCS1(=O)=O (centres unmarked) [BB, hydrochloride]', 490);

* * *

This section presents compounds with their documented pIC50 values.
target desc: TF/FVIIa (Homo sapiens, UniProt P08709)
Sequence (P08709 213-466 limits assumed): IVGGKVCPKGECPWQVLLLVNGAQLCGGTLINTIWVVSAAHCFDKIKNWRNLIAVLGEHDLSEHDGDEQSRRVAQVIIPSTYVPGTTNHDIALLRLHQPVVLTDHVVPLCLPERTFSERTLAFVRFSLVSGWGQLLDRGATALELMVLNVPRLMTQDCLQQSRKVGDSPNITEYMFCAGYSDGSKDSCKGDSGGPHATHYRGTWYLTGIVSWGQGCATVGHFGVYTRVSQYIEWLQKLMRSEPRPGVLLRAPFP
Sequence (P08709 61-212 partner limits assumed): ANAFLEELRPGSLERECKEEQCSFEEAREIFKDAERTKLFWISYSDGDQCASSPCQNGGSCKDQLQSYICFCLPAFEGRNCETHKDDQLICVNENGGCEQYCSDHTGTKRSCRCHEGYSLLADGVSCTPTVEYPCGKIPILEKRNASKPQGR
Sequence (P13726 33-295 partner): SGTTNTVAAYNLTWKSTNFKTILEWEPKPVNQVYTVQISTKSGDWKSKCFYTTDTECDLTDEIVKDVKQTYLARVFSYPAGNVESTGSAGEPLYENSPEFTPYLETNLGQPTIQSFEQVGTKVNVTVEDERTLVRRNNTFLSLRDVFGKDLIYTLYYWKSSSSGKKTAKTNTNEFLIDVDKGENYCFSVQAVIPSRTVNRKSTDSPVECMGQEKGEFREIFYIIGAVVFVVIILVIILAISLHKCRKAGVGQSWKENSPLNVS
assay comment: Inhibition of TF/factor VIIa (TF/FVIIa-IC50)
pIC50: −log10 of the molar value. Counter-ions that a name gives are not always drawn.
attribute measured: pIC50

INSERT INTO measurements (compound, target_desc, attribute_measured, measurement) VALUES
  ('CCCC(Oc1cccc(C(=N)N)c1)C(=O)Nc1ccc(N2CCCS2(=O)=O)cc1 (centres unmarked) [AA, acetate]', 'TF/FVIIa (Homo sapiens, UniProt P08709)', 'pIC50', 6.35),
  ('Cc1cc(NC(=O)C(Nc2cccc(CN)c2)c2ccccc2)ccc1N1CCCS1(=O)=O (centres unmarked) [BB, hydrochloride]', 'TF/FVIIa (Homo sapiens, UniProt P08709)', 'pIC50', 6.06);

Source listed as patent US20040254175A1.
